System: rat
assay_remarks: Randall-Selitto test in rats (Carrageenin-induced oedema, model for inflammatory pain), with isobolographic analysis of fixed ratio combinations
Assay type: in vivo
condition_details: substance applied alone; A i.v., NSAIDs i.p.
Item-by-item account of timepoint of peak effect
assay_endpoint: timepoint of peak effect (min p. appl.)

{"columns": ["compound", "number"],
 "data": [
  ["CC(C(=O)O)c1cccc(C(=O)c2ccccc2)c1 (stereo not shown)", 45],
  ["CC(C)Cc1ccc(C(C)C(=O)O)cc1 (stereo not shown)", 30],
  ["CC1C(N(C)CS(=O)(=O)[O-])C(=O)N(c2ccccc2)N1C.[Na+] (stereo not shown) [Metamizol-Sodium]", 45],
  ["O=C(O)Cc1ccccc1Nc1c(Cl)cccc1Cl [Diclofenac-Sodium]", 30]
]}
